# Assay protocol: Aqueous solubility assessment of salt screen solids (visual)
# Conditions: salt prepared from ethanol; Ca. 5 mg in up to 4000 μL water (1.25 mg/ml), shaken overnight at 50° C.
Measured parameter: Solubility assessment (dissolution in deionized water), salt From Ethanol

>  <Compound>
CNC[C@H](O)[C@@H](O)[C@H](O)[C@H](O)CO.O=C(CSc1ccc(Br)cc1)Nc1cn(CCc2ccccc2)nc1C(=O)O

>  <Result value>
Partial

$$$$
>  <Compound>
O=C(CSc1ccc(Br)cc1)Nc1cn(CCc2ccccc2)nc1C(=O)[O-].[Na+] [sodium salt]

>  <Result value>
Complete

$$$$
>  <Compound>
O=C(CSc1ccc(Br)cc1)Nc1cn(CCc2ccccc2)nc1C(=O)[O-].[K+] [potassium salt]

>  <Result value>
Complete

$$$$
>  <Compound>
CCNC[C@H](O)[C@@H](O)[C@H](O)[C@H](O)CO.O=C(CSc1ccc(Br)cc1)Nc1cn(CCc2ccccc2)nc1C(=O)O

>  <Result value>
Partial

$$$$

###

# Assay protocol: FaSSIF/FeSSIF solubility
# Format: physicochemical
# Conditions: thermodynamic from solid; FaSSIF, shaken 24 h at 37° C.; read-out: FaSSIF solubility @ 37° C.
Recorded solubility at 24 h values for a group of compounds are listed next.
The answer is to be given in µg/mL; state only the numeric part.

>  <Compound>
O=C(CSc1ccc(Br)cc1)Nc1cn(CCc2ccccc2)nc1C(=O)[O-].[Na+] [sodium salt]

>  <Value unit>
µg/mL

>  <Result value>
4000

$$$$

Continue with the compound presented below.
Fill in: solubility at 24 h of O=C(CSc1ccc(Br)cc1)Nc1cn(CCc2ccccc2)nc1C(=O)[O-].[K+] [potassium salt] is ___
1500
